# Assay overview: AUC (0 to infinity) in BALB/C mouse at 25 mg/kg, po by LC/TSQ quantum access mass spectrometry
# Format: ADME, organism-based
# Design: dose 25 mg/kg, time infinity, route oral
# Experimental context: in vivo
Readout name: AUC(0-inf) (ng·h/mL)

1) O=c1cc(N2CCN(CC3CCCCC3)CC2)sc2c([N+](=O)[O-])cc(C(F)(F)F)cc12 = 1700

---

# Assay overview: MRT (0 to infinity) in BALB/C mouse at 10 mg/kg, iv by LC/TSQ quantum access mass spectrometry
# Type: ADME, organism-based
# Experimental context: in vivo
Readout name: MRT inf

1. O=c1cc(N2CCN(CC3CCCCC3)CC2)sc2c([N+](=O)[O-])cc(C(F)(F)F)cc12 = 4.91 h
